- experimental system: CDK2/cyclin E (Homo sapiens)
- experiment notes: Assay of kinase activity (ADP-Glo)
- test parameters: kinase inhibitory activity, read-out: CDK2/E1 IC50
measured metric: IC50 (pM)

>  <molecule>
CC(C)n1nnc2ccc3cnc(Nc4ccc(C(=O)N5CCC(O)CC5)cc4)nc3c21 [Example I-36]

>  <IC50 / pM>
800

$$$$
>  <molecule>
CC(C)n1nnc2c(C(F)F)cc3cnc(Nc4ccc(C(=O)N5CCCN(C)CC5)cc4)nc3c21 [Example I-47]

>  <IC50 / pM>
700

$$$$
>  <molecule>
C[C@@]1(O)CCC[C@H]1n1nnc2ccc3cnc(Nc4ccc(S(=O)(=O)NCCO)cc4)nc3c21 [Example I-71]

>  <IC50 / pM>
900

$$$$
>  <molecule>
CC(C)n1nnc2ccc3cnc(Nc4ccc(C(=O)N5CC[C@@H](C)[C@@H](N)C5)cc4)nc3c21 [Example I-12]

>  <IC50 / pM>
1000

$$$$
>  <molecule>
CC(C)n1nnc2ccc3cnc(Nc4ccc(C(=O)N5CCC(F)(F)CC5)cc4)nc3c21 [Example I-37]

>  <IC50 / pM>
800

$$$$
>  <molecule>
C[C@@H](n1nnc2ccc3cnc(Nc4ccc(C(=O)N5CC[C@H](N)C5)cc4)nc3c21)C(C)(C)O [Example I-54]

>  <IC50 / pM>
1000

$$$$
>  <molecule>
CC(C)n1nnc2ccc3cnc(Nc4ccc(C(=O)N5CCOCC5)cc4)nc3c21 [Example I-35]

>  <IC50 / pM>
700

$$$$
>  <molecule>
CC(C)n1nnc2ccc3cnc(Nc4ccc(C(=O)N5CCC(N(C)C)CC5)c(F)c4)nc3c21 [Example I-17]

>  <IC50 / pM>
800

$$$$

###

- experimental system: CDK9/cyclin T1 (Homo sapiens, UniProt P50750)
- Sequence (P50750 whole entry, species assumed): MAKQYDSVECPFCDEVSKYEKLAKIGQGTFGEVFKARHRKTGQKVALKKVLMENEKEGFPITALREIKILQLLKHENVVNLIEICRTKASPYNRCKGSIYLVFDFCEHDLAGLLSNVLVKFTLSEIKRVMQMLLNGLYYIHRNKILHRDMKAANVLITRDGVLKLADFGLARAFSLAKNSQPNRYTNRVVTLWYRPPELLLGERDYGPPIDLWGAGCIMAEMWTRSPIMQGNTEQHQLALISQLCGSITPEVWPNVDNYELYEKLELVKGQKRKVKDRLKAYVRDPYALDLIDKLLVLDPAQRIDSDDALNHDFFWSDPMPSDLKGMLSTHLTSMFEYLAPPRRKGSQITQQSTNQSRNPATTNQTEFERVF
- Sequence (O60563 whole entry partner, species assumed): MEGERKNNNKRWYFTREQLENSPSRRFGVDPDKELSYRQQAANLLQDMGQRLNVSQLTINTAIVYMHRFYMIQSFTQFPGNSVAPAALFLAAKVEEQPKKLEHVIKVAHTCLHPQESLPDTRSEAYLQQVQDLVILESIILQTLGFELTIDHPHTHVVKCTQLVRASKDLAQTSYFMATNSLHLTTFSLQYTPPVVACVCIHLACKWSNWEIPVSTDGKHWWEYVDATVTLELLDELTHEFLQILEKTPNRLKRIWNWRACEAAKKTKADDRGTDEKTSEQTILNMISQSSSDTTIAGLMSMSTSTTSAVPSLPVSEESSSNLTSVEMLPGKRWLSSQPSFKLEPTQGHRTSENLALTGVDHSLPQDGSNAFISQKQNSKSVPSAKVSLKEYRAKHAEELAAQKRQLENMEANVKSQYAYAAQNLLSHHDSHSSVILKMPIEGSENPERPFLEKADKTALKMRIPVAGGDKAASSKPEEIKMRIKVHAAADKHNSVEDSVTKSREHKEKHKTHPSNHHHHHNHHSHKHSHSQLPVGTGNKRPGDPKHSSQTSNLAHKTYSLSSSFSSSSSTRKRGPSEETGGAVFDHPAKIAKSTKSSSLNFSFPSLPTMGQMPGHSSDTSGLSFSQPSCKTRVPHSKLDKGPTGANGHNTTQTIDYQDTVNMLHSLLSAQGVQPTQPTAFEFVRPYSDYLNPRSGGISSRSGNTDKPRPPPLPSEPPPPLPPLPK
- experiment notes: Assay of kinase activity (ADP-Glo)
- test parameters: kinase inhibitory activity
pIC50: −log10 of the molar value.
measured metric: pIC50

>  <molecule>
CC(C)n1nnc2ccc3cnc(Nc4ccc(C(=O)N5CCOCC5)cc4)nc3c21

>  <pIC50>
8.22

$$$$
>  <molecule>
C[C@@]1(O)CCC[C@H]1n1nnc2ccc3cnc(Nc4ccc(S(=O)(=O)NCCO)cc4)nc3c21

>  <pIC50>
8.05

$$$$
>  <molecule>
CN1CCN(C(=O)c2ccc(Nc3ncc4ccc5nnn([C@@H]6CCC[C@@]6(C)O)c5c4n3)cc2)CC1

>  <pIC50>
8.22

$$$$
>  <molecule>
CC(C)n1nnc2ccc3cnc(Nc4ccc(C(=O)N5CCC(O)C5)cc4)nc3c21 (centres unmarked)

>  <pIC50>
8.22

$$$$
>  <molecule>
CC(C)n1nnc2ccc3cnc(Nc4ccc(C(=O)N5CC6CC(C5)N6)cc4)nc3c21

>  <pIC50>
8.10

$$$$

###

- experimental system: CDK6/cyclin D3 (Homo sapiens)
- Sequence (Q00534 whole entry, species assumed): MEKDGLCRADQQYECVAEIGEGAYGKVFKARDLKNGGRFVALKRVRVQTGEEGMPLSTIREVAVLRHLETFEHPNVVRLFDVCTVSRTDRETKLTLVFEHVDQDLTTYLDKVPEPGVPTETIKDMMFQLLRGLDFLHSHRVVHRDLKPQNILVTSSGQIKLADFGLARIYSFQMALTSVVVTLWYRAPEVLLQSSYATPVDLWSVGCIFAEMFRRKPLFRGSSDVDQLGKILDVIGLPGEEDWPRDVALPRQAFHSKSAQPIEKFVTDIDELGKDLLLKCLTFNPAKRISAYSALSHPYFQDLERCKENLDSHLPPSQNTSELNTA
- Sequence (P30281 whole entry partner, species assumed): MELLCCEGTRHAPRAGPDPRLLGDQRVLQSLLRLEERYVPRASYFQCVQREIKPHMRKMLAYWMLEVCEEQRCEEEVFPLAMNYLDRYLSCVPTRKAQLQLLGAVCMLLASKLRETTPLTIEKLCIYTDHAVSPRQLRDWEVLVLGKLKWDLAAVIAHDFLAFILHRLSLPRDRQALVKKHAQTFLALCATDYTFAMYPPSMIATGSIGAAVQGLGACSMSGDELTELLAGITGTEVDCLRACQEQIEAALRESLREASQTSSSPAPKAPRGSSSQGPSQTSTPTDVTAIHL
- experiment notes: Assay of kinase activity (ADP-Glo)
- test parameters: kinase inhibitory activity
measured metric: IC50 (nM)

Use the examples below as a reference point.
>  <chemical structure>
CC(C)n1nnc2ccc3cnc(Nc4ccc(C(=O)N5CCNCC5)c(F)c4)nc3c21

>  <IC50 / nM>
12

$$$$
>  <chemical structure>
CC(C)n1nnc2ccc3cnc(Nc4ccc(C(=O)N5CC[C@H](F)C5)cc4)nc3c21

>  <IC50 / nM>
13

$$$$
>  <chemical structure>
CN1CCN(C(=O)c2ccc(Nc3ncc4ccc5nnn([C@@H]6CCC[C@@]6(C)O)c5c4n3)cc2)CC1

>  <IC50 / nM>
15

$$$$

1. CC(C)N[C@@H]1CCN(C(=O)c2ccc(Nc3ncc4ccc5nnn(C(C)C)c5c4n3)cc2)C1
2. C[C@@H](n1nnc2ccc3cnc(Nc4ccc(C(=O)N5CCOCC5)cc4)nc3c21)C(C)(C)O
# input Which value of IC50 is numerically greater: that of 1 or that of 2 ? Write down the label of the entry you select.
# output 1
(1: 15 nM, 2: 9 nM)

I. CCN1CCN(C(=O)c2ccc(Nc3ncc4ccc5nnn(C(C)C)c5c4n3)cc2)CC1
II. CC(C)n1nnc2ccc3cnc(Nc4ccc(C(=O)N5CC[C@H](N)C5)cc4)nc3c21
# input Which value of IC50 is numerically greater: that of I or that of II ? Write down the label of the entry you select.
# output I

Hey, just so you know, these numbers are from patent EP4711369A1.
